Details: 308.15 K; 101.33 kPa; Liquid
measured_metric: mass density (kg/m3)
Give bare numbers, in kg/m3.

Answered cases to consult:
molecule	measured_metric	units_symbol	assay_result
OCCOCCO [diethylene glycol]	mass density	kg/m3	1105.88
OCCOCCOCCO [triethylene glycol]	mass density	kg/m3	1112.61
CC(O)CO (centres undefined) [1,2-propanediol]	mass density	kg/m3	1026.15

### Prompt # get_value(readout='mass density', item= OCCc1ccccc1 [2-phenylethanol] )
### Response 1008.68
